System: Rattus norvegicus
Assay: Gastrointestinal toxicity in rat assessed as ulcerogenic index administered orally at dose equivalent to 210 mg/kg ibuprofen
Type: organism-based
Design: dose 210 mg/kg, route oral
Conditions: in vivo, po
value kind: UI
Lab note: record the figure alone, no unit after it.

The compound listed as Clc1ccc(-c2nnc(-c3ccncc3)o2)c(Cl)c1 shows UI equal to 0.386

For reference, reported UI for c1ccc(Oc2nnc(-c3ccncc3)o2)cc1 stands at 0.731

Looking up O=[N+]([O-])c1ccc(-c2nnc(-c3ccncc3)o2)cc1 , I see its UI listed as 1.762

Record CC(=O)Oc1ccccc1-c1nnc(-c2ccncc2)o1 . Reported UI: 0.831

Kindly note the recorded UI for Cc1ccccc1-c1nn2c(-c3ccncc3)nnc2s1 , which is 0.471

Notebook: c1ccc(-c2nn3c(-c4ccncc4)nnc3s2)cc1 , UI read as 0.666

// field: UI; key: Sc1nnc(-c2ccncc2)o1 ; value = 1.327
